# method_notes: Selectivity index, ratio of CC50 for dog MDCK cells to EC50 for antiviral activity against influenza strain A/Aichi/ 2/1968 (H3N2) infected in MDCK cells
# Assay type: toxicity, cell-based
# test_settings: read-out: Selectivity Index

>  <smiles_representation>
O=C1c2c(O)c(=O)ccn2N([C@@H](c2cccs2)c2cc(F)c(F)c(F)c2F)[C@@H]2COCCN12

>  <modifier_sign>
>

>  <selectivity ratio>
6430

$$$$
>  <smiles_representation>
O=C1c2c(O)c(=O)ccn2N([C@H](c2ccccc2)c2cccs2)[C@@H]2COCCN12

>  <modifier_sign>
>

>  <selectivity ratio>
1070

$$$$
>  <smiles_representation>
O=C1c2c(O)c(=O)ccn2N([C@H](c2ccc(F)c(F)c2)c2ccc(Br)s2)[C@@H]2COCCN12

>  <modifier_sign>
=

>  <selectivity ratio>
613

$$$$
>  <smiles_representation>
O=C1c2c(O)c(=O)ccn2N([C@@H](c2ccc(F)c(F)c2)c2ccc(Cl)s2)[C@@H]2COCCN12

>  <modifier_sign>
=

>  <selectivity ratio>
373

$$$$

---

# method_notes: Selectivity index, ratio of CC50 for dog MDCK cells to EC50 for antiviral activity against influenza strain A/WSN/1933 (H1N1) infected in MDCK cells
# Assay type: toxicity, cell-based
# test_settings: read-out: Selectivity Index

>  <smiles_representation>
O=C1c2c(O)c(=O)ccn2N([C@H](c2ccc(F)cc2)c2cccs2)[C@@H]2COCCN12

>  <modifier_sign>
=

>  <selectivity ratio>
8390

$$$$
>  <smiles_representation>
O=C1c2c(O)c(=O)ccn2N([C@H](c2cccc(F)c2)c2cccs2)[C@@H]2COCCN12

>  <modifier_sign>
=

>  <selectivity ratio>
9840

$$$$
>  <smiles_representation>
O=C1c2c(O)c(=O)ccn2N([C@H](c2ccccc2)c2cccs2)[C@@H]2COCCN12

>  <modifier_sign>
>

>  <selectivity ratio>
1370

$$$$
>  <smiles_representation>
O=C1c2c(O)c(=O)ccn2N([C@@H]2c3ccccc3SCc3c2ccc(F)c3F)[C@@H]2COCCN12

>  <modifier_sign>
=

>  <selectivity ratio>
5290

$$$$
>  <smiles_representation>
O=C1c2c(O)c(=O)ccn2N([C@@H](c2ccc(F)cc2)c2cccs2)[C@@H]2COCCN12

>  <modifier_sign>
=

>  <selectivity ratio>
7440

$$$$
>  <smiles_representation>
O=C1c2c(O)c(=O)ccn2N([C@H](c2cccs2)c2cc(F)c(F)c(F)c2F)[C@@H]2COCCN12

>  <modifier_sign>
>

>  <selectivity ratio>
4020

$$$$
>  <smiles_representation>
O=C1c2c(O)c(=O)ccn2N([C@H](c2ccc(Br)c(Br)c2)c2cccs2)[C@@H]2COCCN12

>  <modifier_sign>
=

>  <selectivity ratio>
1540

$$$$
>  <smiles_representation>
O=C1c2c(O)c(=O)ccn2N([C@@H](c2ccc3ccccc3c2)c2cccs2)[C@@H]2COCCN12

>  <modifier_sign>
=

>  <selectivity ratio>
960

$$$$

---

Measured CLint scaled, listed per entry.
# method_notes: Metabolic stability in human liver microsomes assessed as intrinsic clearance measured up to 60 mins by LC-MS/MS analysis
# Assay type: ADME, Microsome
# test_settings: read-out: CLH

>  <smiles_representation>
O=C1c2c(O)c(=O)ccn2N([C@@H](c2ccc(F)cc2)c2cccs2)[C@@H]2COCCN12

>  <CLint scaled / mL/min/kg>
1.62

$$$$
>  <smiles_representation>
O=C1c2c(O)c(=O)ccn2N([C@@H](c2ccc(F)c(F)c2)c2cccs2)[C@@H]2COCCN12

>  <CLint scaled / mL/min/kg>
1.62

$$$$
>  <smiles_representation>
O=C1c2c(O)c(=O)ccn2N([C@H](c2ccc(F)c(F)c2)c2cccs2)[C@@H]2COCCN12

>  <CLint scaled / mL/min/kg>
4.68

$$$$
>  <smiles_representation>
O=C(O)Cc1ccccc1Nc1c(Cl)cccc1Cl

>  <CLint scaled / mL/min/kg>
221

$$$$

---

# method_notes: Cytotoxicity against human Huh-7 cells assessed as cell viability measured after 48 hrs by CCK-8 assay
# Type: toxicity, cell-based
Readings of CC50 at 48 h for the listed compounds
value_kind: CC50 at 48 h (µM)

>  <smiles_representation>
O=C1c2c(O)c(=O)ccn2N([C@@H](c2ccc(F)c(F)c2)c2cccs2)[C@@H]2COCCN12

>  <quantity_unit>
µM

>  <meas_value>
41.6

$$$$
>  <smiles_representation>
O=C1c2c(O)c(=O)ccn2N([C@@H]2c3ccccc3SCc3c2ccc(F)c3F)[C@@H]2COCCN12

>  <quantity_unit>
µM

>  <meas_value>
9.34

$$$$
>  <smiles_representation>
COC(=O)OCOc1c2n(ccc1=O)N([C@@H](c1ccc(F)c(F)c1)c1cccs1)[C@@H]1COCCN1C2=O

>  <quantity_unit>
µM

>  <meas_value>
60.1

$$$$

---

# method_notes: Cmax in CD-1 mouse at 15 mg/kg, po measured up to 24 hrs by LC-MS/MS analysis
# Type: ADME, organism-based
# test_settings: in vivo

>  <smiles_representation>
O=C1c2c(O)c(=O)ccn2N([C@@H](c2ccc(F)c(F)c2)c2cccs2)[C@@H]2COCCN12

>  <Cmax, ng/mL>
4070

$$$$

---

# method_notes: Cytotoxicity against dog MDCK cells assessed as cell viability measured after 48 hrs by CCK-8 assay
# Type: toxicity, cell-based, Canis lupus familiaris
value_kind: CC50 at 48 h

>  <smiles_representation>
O=C1c2c(O)c(=O)ccn2N([C@H](c2ccc(F)c(F)c2)c2cc3ccccc3s2)[C@@H]2COCCN12

>  <meas_value>
> 50 µM

$$$$
>  <smiles_representation>
O=C1c2c(O)c(=O)ccn2N([C@H](c2ccc(F)c(F)c2)c2cccs2)[C@@H]2COCCN12

>  <meas_value>
25.2 µM

$$$$
>  <smiles_representation>
O=C1c2c(O)c(=O)ccn2N([C@@H](c2ccc(F)c(F)c2)c2ccc(-c3ccccc3)s2)[C@@H]2COCCN12

>  <meas_value>
39.8 µM

$$$$
>  <smiles_representation>
O=C1c2c(O)c(=O)ccn2N([C@@H](c2cc(F)c(F)c(F)c2)c2cccs2)[C@@H]2COCCN12

>  <meas_value>
> 50 µM

$$$$

---

# method_notes: Cytotoxicity against human HepG2 cells assessed as cell viability measured after 48 hrs by CCK-8 assay
# Assay type: toxicity, cell-based

>  <smiles_representation>
O=C1c2c(O)c(=O)ccn2N([C@@H](c2ccc(F)c(F)c2)c2cccs2)[C@@H]2COCCN12

>  <CC50 at 48 h>
> 50 µM

$$$$
>  <smiles_representation>
COC(=O)OCOc1c2n(ccc1=O)N([C@@H](c1ccc(F)c(F)c1)c1cccs1)[C@@H]1COCCN1C2=O

>  <CC50 at 48 h>
> 50 µM

$$$$
>  <smiles_representation>
O=C1c2c(O)c(=O)ccn2N([C@@H]2c3ccccc3SCc3c2ccc(F)c3F)[C@@H]2COCCN12

>  <CC50 at 48 h>
19.1 µM

$$$$

---

# System: Influenza A virus
# method_notes: Antiviral activity against influenza strain A/Aichi/ 2/1968 (H3N2) infected in MDCK cells assessed as reduction of virus-induced cytopathic effect measured after 2 days incubation
# Type: functional, organism-based
# test_settings: 48 h
pEC50: −log10 of the molar value.
Classification field: enter Y for pEC50 values not below 8, N for values below it.

>  <smiles_representation>
O=C1c2c(O)c(=O)ccn2N([C@H](c2ccc(F)c(F)c2)c2ccc(Cl)s2)[C@@H]2COCCN12

>  <tested_on>
Influenza A virus

>  <class_assignment>
N

$$$$
>  <smiles_representation>
O=C1c2c(O)c(=O)ccn2N([C@@H](c2ccc(Cl)c(Cl)c2)c2cccs2)[C@@H]2COCCN12

>  <tested_on>
Influenza A virus

>  <class_assignment>
N

$$$$
>  <smiles_representation>
O=C1c2c(O)c(=O)ccn2N([C@@H](c2ccc3ccccc3c2)c2cccs2)[C@@H]2COCCN12

>  <tested_on>
Influenza A virus

>  <class_assignment>
N

$$$$
>  <smiles_representation>
O=C1c2c(O)c(=O)ccn2N([C@H](c2ccccc2)c2cccs2)[C@@H]2COCCN12

>  <tested_on>
Influenza A virus

>  <class_assignment>
N

$$$$
>  <smiles_representation>
O=C1c2c(O)c(=O)ccn2N([C@@H]2c3ccccc3SCc3c2ccc(F)c3F)[C@@H]2COCCN12

>  <tested_on>
Influenza A virus

>  <class_assignment>
Y

$$$$
>  <smiles_representation>
O=C1c2c(O)c(=O)ccn2N([C@@H](c2ccccc2)c2cccs2)[C@@H]2COCCN12

>  <tested_on>
Influenza A virus

>  <class_assignment>
N

$$$$
>  <smiles_representation>
O=C1c2c(O)c(=O)ccn2N([C@H](c2cccc(F)c2)c2cccs2)[C@@H]2COCCN12

>  <tested_on>
Influenza A virus

>  <class_assignment>
N

$$$$
>  <smiles_representation>
O=C1c2c(O)c(=O)ccn2N([C@H](c2ccc3ccccc3c2)c2cccs2)[C@@H]2COCCN12

>  <tested_on>
Influenza A virus

>  <class_assignment>
N

$$$$
>  <smiles_representation>
O=C1c2c(O)c(=O)ccn2N([C@H](c2ccc(Br)c(Br)c2)c2cccs2)[C@@H]2COCCN12

>  <tested_on>
Influenza A virus

>  <class_assignment>
N

$$$$
>  <smiles_representation>
O=C1c2c(O)c(=O)ccn2N([C@@H](c2ccc(F)cc2)c2cccs2)[C@@H]2COCCN12

>  <tested_on>
Influenza A virus

>  <class_assignment>
Y

$$$$
>  <smiles_representation>
O=C1c2c(O)c(=O)ccn2N([C@@H](c2ccc(F)c(F)c2)c2ccc(Cl)s2)[C@@H]2COCCN12

>  <tested_on>
Influenza A virus

>  <class_assignment>
N

$$$$
>  <smiles_representation>
Cc1ccc([C@@H](c2cccs2)N2[C@@H]3COCCN3C(=O)c3c(O)c(=O)ccn32)cc1C

>  <tested_on>
Influenza A virus

>  <class_assignment>
Y

$$$$
>  <smiles_representation>
O=C1c2c(O)c(=O)ccn2N([C@@H](c2ccc(F)c(F)c2)c2ccc(Br)s2)[C@@H]2COCCN12

>  <tested_on>
Influenza A virus

>  <class_assignment>
N

$$$$

Origin of the recorded values: ChEMBL document CHEMBL6078703
